- System: A549-GM130-SQSTM1
- test.method.notes: phenotypically active (imaging signature differs from DMSO and reproducible) at any of 0.3-9 uM (binary (1 = active, 0 = inactive)); higher = active
- assay.context: treatment time: 24 h
Where a name gives a salt, the structure may show the parent alone.
Please respond with reported phenotypically active for every item in the list.
Numbers only.

Example entries and their recorded answers appear below.
{"molecule": "CCN(CC)CCNC(=O)c1cc(Cl)c(N)cc1OC [metoclopramide]", "target.or.test.system": "A549-GM130-SQSTM1", "phenotypically active": 0}
{"molecule": "Cc1c(NC(=O)OC[C@@H]2COCCN2)cn2ncnc(Nc3ccc4c(cnn4Cc4cccc(F)c4)c3)c12", "target.or.test.system": "A549-GM130-SQSTM1", "phenotypically active": 1}
{"molecule": "Cc1cccc(Nc2cc(Cl)nc(SCC(=O)O)n2)c1C", "target.or.test.system": "A549-GM130-SQSTM1", "phenotypically active": 0}
{"molecule": "COc1c(C)cnc(Cn2cc(C#CCC(C)(C)O)c3c(Cl)nc(N)nc32)c1C", "target.or.test.system": "A549-GM130-SQSTM1", "phenotypically active": 1}
{"molecule": "CCC(=O)N1CCOc2c(cc(-c3ccc(OC)c(OC)c3)cc2OC[C@H]2CCCN(C)C2)C1", "target.or.test.system": "A549-GM130-SQSTM1", "phenotypically active": 0}
{"molecule": "CN(N=O)C(=O)N[C@@H](C=O)[C@@H](O)[C@H](O)[C@H](O)CO.CN(N=O)C(=O)N[C@H]1C(O)O[C@H](CO)[C@@H](O)[C@@H]1O [streptozotocin]", "target.or.test.system": "A549-GM130-SQSTM1", "phenotypically active": 0}
{"molecule": "COc1ccc(N(C)c2nc(C)nc3ccccc23)cc1 [MPC 6827 hydrochloride]", "target.or.test.system": "A549-GM130-SQSTM1", "phenotypically active": 1}
{"molecule": "COc1ccc2cc(CCC(C)=O)ccc2c1 [nabumetone]", "target.or.test.system": "A549-GM130-SQSTM1", "phenotypically active": 0}

Quick one: give me phenotypically active for each item below, same order please.
1. N[C@@H](CSC(c1ccccc1)(c1ccccc1)c1ccccc1)C(=O)O [S-Trityl-L-cysteine]
2. COc1ccc(C[C@H](C)NC[C@@H](O)c2ccc(O)c(NC=O)c2)cc1 [formoterol]
3. Clc1ccc(C2(c3ccc(-c4cn[nH]c4)cc3)CCNCC2)cc1
4. CC(=O)NCC(=O)N1[C@@H]2CC[C@H]1c1ccc(Nc3ncc(C(F)(F)F)c(NC4CCC4)n3)cc12
5. O=C(Nc1c[nH]nc1-c1nc2cc(CN3CCOCC3)ccc2[nH]1)NC1CC1
6. NS(=O)(=O)Cc1noc2ccccc12 [zonisamide]

Result:
[0, 0, 1, 1, 1, 0]

Quick one: give me phenotypically active for each item below, same order please.
1. C[C@](N)(Cc1ccc(O)c(O)c1)C(=O)O [methyldopa]
2. COc1ccc2c(c1)c(CC(=O)O)c(C)n2C(=O)c1ccc(Cl)cc1 [indomethacin]
3. CN([C@H]1c2cc(OCCCC(F)(F)F)ccc2OC(C)(C)[C@@H]1O)S(C)(=O)=O
4. CC1=CC(=O)CC(C)(C)C1(O)/C=C/C(C)=C\C(=O)O (mixture of isomers) [(+/-)-2-cis-4-trans-Abscisic acid]
5. C[C@]1(O)C[C@@H](c2nc(-c3ccc4ccc(-c5ccccc5)nc4c3)c3c(N)nccn32)C1 [linsitinib]

Result:
1: 0; 2: 0; 3: 0; 4: 0; 5: 1

Values from the supplement of paper PMC7411054
